# Protocol: Permeability of compound at pH 5.5 by PAMPA
# Format: ADME
# Condition summary: read-out: permeability
Observation type: Papp (×10⁻⁶ cm/s)

The examples below pair each entry with its known result.
* Nc1c(C(=O)N[C@@H]2CC[C@H](c3ccccc3)c3ccccc32)[nH]c(=O)[nH]c1=O | 28.9
* O=C(N[C@H]1CC[C@@H](c2ccccc2)CC1)c1[nH]c(=O)[nH]c(=O)c1O | 42.7

[a] O=C(N[C@H]1CC[C@@H](c2ccccc2)CC1)c1[nH]c(=O)n(Cc2ccccc2)c(=O)c1O
[b] CCN1CC(C(=O)NC(C)CCc2ccc(Cl)c(Cl)c2)=C(O)C1=O (stereo not given)
[c] Nc1c(C(=O)N[C@@H]2CCCc3c(OCc4ccccc4)cccc32)[nH]c(=O)[nH]c1=O
Q) Exam item: list the entries in increasing order of Papp. Enter labels, ranked according to the request.
A) a, b, c
(a: 27.7 ×10⁻⁶ cm/s, b: 50.8 ×10⁻⁶ cm/s, c: 96 ×10⁻⁶ cm/s)

###

# Protocol: Half life in mouse at 1 mg/kg, iv
# Assay type: ADME, organism-based
# Condition summary: in vivo
Observation type: half-life (min)

* Nc1c(C(=O)N[C@@H]2CC[C@H](c3ccccc3)c3ccccc32)[nH]c(=O)[nH]c1=O | 84

[a] O=C(N[C@H]1CC[C@@H](c2ccccc2)CC1)c1[nH]c(=O)[nH]c(=O)c1O
[b] Nc1c(C(=O)N[C@@H]2CCCc3c(OCc4ccccc4)cccc32)[nH]c(=O)[nH]c1=O
Q) Lowest half-life? choose a or b Let me know the label of the one you choose.
A) a
(a: 66 min, b: 402 min)

###

# Experimental system: Endothelial lipase (Homo sapiens, UniProt Q9Y5X9)
# Protocol: Inhibition of endothelial lipase (unknown origin) using D31-POPC-HDL as substrate after 2 hrs in presence of human serum by LC/MS analysis
Observation type: IC50 (µM)

The examples below pair each entry with its known result.
- Nc1c(C(=O)N[C@H]2CC[C@@H](c3ccc(OCc4ccccc4)cc3)CC2)[nH]c(=O)[nH]c1=O: 35
- Nc1c(C(=O)N[C@@H]2CC[C@H](c3ccccc3)c3ccccc32)[nH]c(=O)[nH]c1=O: 76

[1] Nc1c(C(=O)N[C@@H]2CCCc3c(OCc4ccccc4)cccc32)[nH]c(=O)[nH]c1=O
[2] O=C(N[C@H]1CC[C@@H](c2ccccc2)CC1)c1[nH]c(=O)[nH]c(=O)c1O
[3] O=C(N[C@H]1CC[C@@H](c2ccccc2)CC1)c1[nH]c(=O)[nH]c(=O)c1NC1CCCC1
Q) Exam item: list the entries in increasing order of IC50. Enter labels, ranked according to the request.
A) 2, 1, 3

###

# Experimental system: Endothelial lipase (Homo sapiens)
# Sequence (Q9Y5X9 whole entry): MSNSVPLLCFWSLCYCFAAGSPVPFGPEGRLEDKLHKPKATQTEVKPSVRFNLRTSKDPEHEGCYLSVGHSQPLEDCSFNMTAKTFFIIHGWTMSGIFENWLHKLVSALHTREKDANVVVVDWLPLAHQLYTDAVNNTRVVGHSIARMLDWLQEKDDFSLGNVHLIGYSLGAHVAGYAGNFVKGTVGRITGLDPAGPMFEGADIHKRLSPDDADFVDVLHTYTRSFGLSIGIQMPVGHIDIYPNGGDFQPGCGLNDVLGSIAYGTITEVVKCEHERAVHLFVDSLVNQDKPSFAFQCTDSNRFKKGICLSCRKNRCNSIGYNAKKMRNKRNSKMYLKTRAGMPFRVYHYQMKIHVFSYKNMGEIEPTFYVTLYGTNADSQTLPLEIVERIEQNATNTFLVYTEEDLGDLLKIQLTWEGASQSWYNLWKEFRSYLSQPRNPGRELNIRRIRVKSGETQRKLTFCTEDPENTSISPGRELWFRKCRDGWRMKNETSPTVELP
# Protocol: Inhibition of endothelial lipase (unknown origin) using D31-POPC-HDL as substrate after 2 hrs in presence of human serum by LC/MS analysis
pIC50: −log10 of the molar value.
Observation type: pIC50

[P] Nc1c(C(=O)N[C@@H]2CC[C@H](c3ccccc3)C2)[nH]c(=O)[nH]c1=O
[Q] CC(C)Cn1c(=O)[nH]c(C(=O)N[C@H]2CC[C@@H](c3ccccc3)CC2)c(O)c1=O
Q) Lowest pIC50? choose P or Q Let me know the label of the one you choose.
A) P
(P: 3.64, Q: 4.32)

[P] Nc1c(C(=O)N[C@@H]2CCc3cc(OCc4ccccc4)ccc32)[nH]c(=O)[nH]c1=O
[Q] O=C(N[C@H]1CC[C@@H](c2ccccc2)CC1)c1[nH]c(=O)n(Cc2ccccc2)c(=O)c1O
Q) Lowest pIC50? choose P or Q Let me know the label of the one you choose.
A) P

###

# Protocol: Permeability of compound at pH 7.4 by PAMPA
# Assay type: ADME
# Condition summary: read-out: permeability
Observation type: Papp (×10⁻⁶ cm/s)

The examples below pair each entry with its known result.
- O=C(N[C@H]1CC[C@@H](c2ccccc2)CC1)c1[nH]c(=O)[nH]c(=O)c1O: 1.2
- O=C(N[C@H]1CC[C@@H](c2ccccc2)CC1)c1[nH]c(=O)n(Cc2ccccc2)c(=O)c1O: 15.8
- Nc1c(C(=O)N[C@@H]2CC[C@H](c3ccccc3)c3ccccc32)[nH]c(=O)[nH]c1=O: 32.2
- Nc1c(C(=O)N[C@@H]2CCc3cc(OCc4ccccc4)ccc32)[nH]c(=O)[nH]c1=O: 76.8

[A] Nc1c(C(=O)N[C@@H]2CCCc3c(OCc4ccccc4)cccc32)[nH]c(=O)[nH]c1=O
[B] CCN1CC(C(=O)NC(C)CCc2ccc(Cl)c(Cl)c2)=C(O)C1=O (stereo unspecified)
Q) Lowest Papp? choose A or B Let me know the label of the one you choose.
A) B

###

# Protocol: Metabolic stability in mouse liver microsomes assessed as parent compound remaining after 10 mins
# Type: ADME, Microsome
# Condition summary: read-out: Stability
Observation type: remaining at 10 min (%)

• Nc1c(C(=O)N[C@@H]2CC[C@H](c3ccccc3)c3ccccc32)[nH]c(=O)[nH]c1=O = 92
• O=C(N[C@H]1CC[C@@H](c2ccccc2)CC1)c1[nH]c(=O)[nH]c(=O)c1O = 100
• Nc1c(C(=O)N[C@@H]2CCCc3c(OCc4ccccc4)cccc32)[nH]c(=O)[nH]c1=O = 79
• Nc1c(C(=O)N[C@H]2CC[C@@H](c3ccc(OCc4ccccc4)cc3)CC2)[nH]c(=O)[nH]c1=O = 85
• Nc1c(C(=O)N[C@@H]2CCc3cc(OCc4ccccc4)ccc32)[nH]c(=O)[nH]c1=O = 85
• CC(C)Cn1c(=O)[nH]c(C(=O)N[C@H]2CC[C@@H](c3ccccc3)CC2)c(O)c1=O = 100
• CCN1CC(C(=O)NC(C)CCc2ccc(Cl)c(Cl)c2)=C(O)C1=O (configuration not stated) = 92

###

# Protocol: Oral bioavailability in mouse at 1 mg/kg
# Format: ADME, organism-based
# Condition summary: in vivo
Observation type: bioavailability (%)
Give the number; % is assumed, so skip it.

Q) Fill blank: measured bioavailability of the molecule "Nc1c(C(=O)N[C@@H]2CCCc3c(OCc4ccccc4)cccc32)[nH]c(=O)[nH]c1=O" is ____.
A) 55

###

# Protocol: AUC in mouse at 1 mg/kg, po
# Type: ADME, organism-based
# Condition summary: in vivo
Observation type: AUC (µM·h)
Give the number; µM·h is assumed, so skip it.

Q) Fill blank: measured AUC of the compound "Nc1c(C(=O)N[C@@H]2CCCc3c(OCc4ccccc4)cccc32)[nH]c(=O)[nH]c1=O" is ____.
A) 79

###

# Protocol: AUC in mouse at 1 mg/kg, iv
# Assay type: ADME, organism-based
# Condition summary: in vivo
Observation type: AUC (µM·h)

The examples below pair each entry with its known result.
- Nc1c(C(=O)N[C@@H]2CC[C@H](c3ccccc3)c3ccccc32)[nH]c(=O)[nH]c1=O: 11
- O=C(N[C@H]1CC[C@@H](c2ccccc2)CC1)c1[nH]c(=O)[nH]c(=O)c1O: 5.5

[1] Nc1c(C(=O)N[C@@H]2CCCc3c(OCc4ccccc4)cccc32)[nH]c(=O)[nH]c1=O
[2] CCN1CC(C(=O)NC(C)CCc2ccc(Cl)c(Cl)c2)=C(O)C1=O (centres undefined)
Q) Which one would you say has the larger AUC value: 1 , or 2 ? Let me know the label of the one you choose.
A) 2
